Biological target: HLA-DRB1*01:01 (Homo sapiens, UniProt P01903+P01911, A100R/D57E/F55L/F60I/F76Y/I96L/L162R/M171V/P40L/Q125E/R42F/V115G/Y59C)
Construct: EBV transformed homozygous cell lines were used as sources of MHC molecules; endogenous in cells; host or cells: EBV transformed homozygous cell lines
Assay: HLA class II peptide binding, inhibition of radiolabeled peptide binding to purified MHC
Conditions: citrullinated 15-mer (X); purified MHC, inhibition of radiolabeled peptide binding; dash = IC50 >40,000 nM; read-out: DRB1*01:01 binding capacity, Cit peptide (IC50 nM)
Square brackets hold non-standard residues; d marks the D form. Peptide text beside a SMILES is read from it. Cit = NC(=O)NCCC[C@H](N)C(=O)O
measurement label: log10(IC50) (log10 of the value in nM)

INSERT INTO results (molecule, val) VALUES
  ('CC(C)C[C@H](NC(=O)[C@H](CC(C)C)NC(=O)[C@H](CCCNC(=N)N)NC(=O)[C@@H](NC(=O)CNC(=O)[C@@H]1CCCN1C(=O)[C@@H](NC(=O)[C@H](CO)NC(=O)[C@H](CO)NC(=O)[C@@H](N)CCCNC(N)=O)C(C)C)C(C)C)C(=O)N[C@@H](CCC(N)=O)C(=O)N[C@@H](CC(=O)O)C(=O)N[C@@H](CO)C(=O)N[C@H](C(=O)N[C@@H](CC(=O)O)C(=O)O)C(C)C [XSSVPGVRLLQDSVD] (H-[Cit]SSVPGVRLLQDSVD-OH)', 2.73),
  ('CC(C)C[C@H](NC(=O)[C@H](CO)NC(=O)[C@H](C)NC(=O)[C@H](CC(N)=O)NC(=O)[C@@H](N)CC(=O)O)C(=O)N[C@@H](C)C(=O)N[C@@H](CCCNC(N)=O)C(=O)N[C@@H](CC(C)C)C(=O)N[C@@H](CC(=O)O)C(=O)N[C@@H](CC(C)C)C(=O)N[C@@H](CCC(=O)O)C(=O)N[C@@H](CCCNC(=N)N)C(=O)N[C@@H](CCCCN)C(=O)N[C@H](C(=O)N[C@@H](CCC(=O)O)C(=O)O)C(C)C [DNASLAXLDLERKVE] (H-DNASLA[Cit]LDLERKVE-OH)', 4.21),
  ('CC(C)C[C@H](NC(=O)[C@H](CCCNC(=N)N)NC(=O)[C@@H](NC(=O)[C@H](C)NC(=O)[C@H](CO)NC(=O)[C@H](CO)NC(=O)[C@H](CCCNC(N)=O)NC(=O)[C@@H](NC(=O)[C@H](C)NC(=O)[C@H](Cc1ccc(O)cc1)NC(=O)[C@@H](NC(=O)CNC(=O)CNC(=O)[C@@H]1CCCN1C(=O)[C@@H](N)CO)C(C)C)[C@@H](C)O)C(C)C)C(=O)O [SPGGVYATXSSAVRL] (H-SPGGVYAT[Cit]SSAVRL-OH)', 0.82),
  ('CC(C)C[C@H](NC(=O)[C@H](CCCNC(N)=O)NC(=O)[C@H](C)N)C(=O)N[C@@H](CC(=O)O)C(=O)N[C@@H](CC(C)C)C(=O)N[C@@H](CCC(=O)O)C(=O)N[C@@H](CCCNC(=N)N)C(=O)N[C@@H](CCCCN)C(=O)N[C@H](C(=O)N[C@@H](CCC(=O)O)C(=O)N[C@@H](CO)C(=O)N[C@@H](CC(C)C)C(=O)N[C@@H](CCC(N)=O)C(=O)N[C@@H](CCC(=O)O)C(=O)N[C@@H](CCC(=O)O)C(=O)O)C(C)C [AXLDLERKVESLQEE] (H-A[Cit]LDLERKVESLQEE-OH)', 3.72),
  ('CC(C)C[C@H](NC(=O)[C@H](CC(C)C)NC(=O)[C@H](CCCNC(N)=O)NC(=O)[C@@H](NC(=O)CNC(=O)[C@@H]1CCCN1C(=O)[C@@H](NC(=O)[C@H](CO)NC(=O)[C@H](CO)NC(=O)[C@H](CCCNC(=N)N)NC(=O)[C@H](CC(C)C)NC(=O)[C@H](CCCNC(=N)N)NC(=O)[C@@H](NC(=O)[C@H](C)NC(=O)[C@@H](N)CO)C(C)C)C(C)C)C(C)C)C(=O)O [SAVRLRSSVPGVXLL] (H-SAVRLRSSVPGV[Cit]LL-OH)', 0.99);
